# Measurement protocol: Plasma clearance in CD rat at 1 mg/kg, iv and 5 mg/kg, po
# Type: ADME, organism-based
Readout name: clearance (mL/min/kg)
Response body: numeric value in mL/min/kg, unit text excluded.

Task: Returns the measured clearance for the input compound. Input: Cn1c(=O)c(C(=O)NCCO)c(O)c2ncc(Cc3ccc(F)cc3)cc21
Output: 3.2

###

# Measurement protocol: AUC in CD rat at 5 mg/kg, po
# Format: ADME, organism-based
# Set-up: dose 5 mg/kg, route oral
# Settings: plasma
Readout name: log10(AUC) (log10 of the value in ng·h/mL)
Could you please treat all values as log10 of AUC in ng·h/mL?

Task: Returns the measured log10(AUC) for the input molecule. Input: C[C@H](CO)NC(=O)c1c(O)c2ncc(Cc3ccc(F)cc3)cc2[nH]c1=O
Output: 3.80

Task: Returns the measured log10(AUC) for the input molecule. Input: COCCNC(=O)c1c(O)c2ncc(Cc3ccc(F)cc3)cc2[nH]c1=O
Output: 3.22

Task: Returns the measured log10(AUC) for the input molecule. Input: CN(CCNC(=O)c1c(O)c2ncc(Cc3ccc(F)cc3)cc2n(C)c1=O)S(C)(=O)=O
Output: 3.76

Task: Returns the measured log10(AUC) for the input molecule. Input: C[C@@H](CO)NC(=O)c1c(O)c2ncc(Cc3ccc(F)cc3)cc2n(C)c1=O
Output: 4.35

Task: Returns the measured log10(AUC) for the input molecule. Input: COCCNC(=O)c1c(O)c2ncc(Cc3ccc(F)cc3)cc2n(C)c1=O
Output: 3.27
